conditions: buffer; pH 7.4; 200.0 µM
observed_property: solubility kinetic (µg/mL)
Give the number; µg/mL is assumed, so skip it.

Exercise: Let me know recorded solubility kinetic for COC(=O)C1=C(C)N(c2ccccc2)/C(=C/c2ccco2)C1=O , thanks.
Key: 3.3

Exercise: Retrieve solubility kinetic measured for CN(Cc1ccccc1)C(=O)COC(=O)c1ccc(Br)c(S(=O)(=O)N2CCOCC2)c1 and print it.
Key: 36.7

Exercise: Answer with the recorded solubility kinetic of CC(=O)N(c1cccc(C)c1)S(=O)(=O)c1ccc(Cl)cc1 only.
Key: 32.7

Exercise: Specify measured solubility kinetic for COC(=O)c1sccc1NC(=S)N1C(C)CCCC1C (centres undefined) .
Key: 20.3

Exercise: Name the recorded solubility kinetic of the item N#C/C(=C\c1ccc([N+](=O)[O-])cc1)c1ccccn1 in your answer.
Key: 4.7

Exercise: In one line, give reported solubility kinetic of the entry CC(OC(=O)CCc1c[nH]c2ccccc12)C(=O)c1ccccc1 (centres undefined) .
Key: 12.7

Exercise: Supply solubility kinetic value. Item: Cc1cc(C)cc(OCC(=O)N2CCc3ccccc3C2)c1
Key: 31.5

Exercise: Give a short answer stating reported solubility kinetic for COc1ccc(C(=O)c2c[nH]c(C(=O)N=CN(C)C)c2)cc1 .
Key: 42

Exercise: Please indicate solubility kinetic recorded for CCOc1ccc(NC(=O)N2CCc3ccccc3C2)cc1
Key: 3.7

Exercise: Please look at this compound and report its solubility kinetic: COc1ccc(NC(=O)c2cc3ccccc3o2)cn1
Key: 3.8

Exercise: Tell me its solubility kinetic given Fc1ccc(NC(=S)Nc2nccs2)cc1 as the entry.
Key: 14.9

Exercise: Specify reported solubility kinetic for the compound shown: Cc1ccc(/C=C/C(=O)OCC(=O)NC(=O)NCc2ccccc2)cc1
Key: 3.8

Exercise: Write down solubility kinetic measured for item CC1CC(C)CN(S(=O)(=O)c2ccc3oc(=O)ccc3c2)C1 (centres undefined)
Key: 14

Exercise: State, in one line, measured solubility kinetic of N#Cc1nc(-c2ccc(F)cc2)oc1N1CCCCC1
Key: 0.9

Exercise: Kindly indicate its recorded solubility kinetic. Item: COc1ccccc1/C=C(\NC(=O)c1ccccc1)C(=O)NCc1ccco1
Key: 7

Exercise: Fill in solubility kinetic for record Cc1[nH]c2ccccc2c1CN1CCN(c2ccccn2)CC1
Key: 44.4

Exercise: Give the reported solubility kinetic for this compound. CC(=O)Nc1ccc(N2CCN(Cc3ccccc3)CC2)cc1
Key: 43.5

Exercise: Return value of solubility kinetic for input COc1cc(OC)c(C(=O)NCc2cccnc2)cc1OC , no commentary.
Key: 42.9

Exercise: Provide solubility kinetic value for the following compound: CC(=O)c1ccc(NC(=O)COC(=O)c2ccc(F)cc2F)cc1
Key: 15.2

Exercise: Report solubility kinetic, nothing else, for this compound: O=C(Nc1ccc(F)cc1)NC1CCCCCCC1
Key: 1.6

Exercise: Query solubility kinetic for COc1cccc(N/C=C/C(=O)c2ccc(OC)c(OC)c2)c1
Key: 2.3

Exercise: Return the recorded solubility kinetic value; entry: CCn1c(C)c(C)c2cc(C(=O)NC3CCCCCC3)ccc21
Key: 0.5

Exercise: Give solubility kinetic for O=C(NCCCn1ccnc1)c1ccc2ccccc2c1
Key: 34.8

Exercise: Output measured solubility kinetic for this item: O=C(COC(=O)c1ccc([N+](=O)[O-])o1)Nc1ccc(Br)cc1F
Key: 21

Exercise: Return solubility kinetic (reported value) for this compound: Cc1ccc(NC(=O)c2sccc2C)nc1
Key: 34.8

Exercise: Annotate the compound COc1ccc2cc(C#N)c(SCC(=O)Nc3nonc3C)nc2c1 with its measured solubility kinetic.
Key: 3.4

Exercise: Hello, please tell me recorded solubility kinetic for this one: COCCNC(=S)Nc1ccccc1Cc1ccccc1
Key: 13.7

---

Please go through the items and note down their solubility kinetic.
details: buffer; pH 7.4; 200.0 µM

Exercise: Please indicate solubility kinetic recorded for COc1ccc(Oc2nc(-c3cccnc3)nc3ccccc23)cc1
Key: < 0.2 µg/mL

Exercise: Answer with the recorded solubility kinetic for the molecule listed here: Cc1ccc(N2C(=O)CC(Nc3cccc4ccccc34)C2=O)cc1 (configuration not stated)
Key: 3.8 µg/mL

Exercise: Item CC(=O)N(Cc1ccc(Cl)cc1)c1cnccn1 : provide solubility kinetic
Key: > 39.3 µg/mL

Exercise: Read off the recorded solubility kinetic for CCOC(=O)CSc1nc2cccnc2n1C
Key: > 37.7 µg/mL

Exercise: Give me measured solubility kinetic, please, for this molecule: CNC(=S)N1C2CCCC1CC(NC(=O)c1ccc(F)cc1)C2 (configuration not stated)
Key: 21.8 µg/mL

Exercise: Given the molecule CC(=O)Nc1sc2c(c1C(N)=O)CCN(Cc1ccccc1)C2.Cl , write its reported solubility kinetic.
Key: > 54.9 µg/mL

Exercise: Supply reported solubility kinetic belonging to this molecule: Cc1ccccc1OCC(=O)OCC(=O)NCc1ccccc1
Key: > 47 µg/mL

Exercise: Determine from records and report solubility kinetic for CC(C)(C)CC(=O)O/N=C(\N)c1ccncc1
Key: > 35.3 µg/mL

Exercise: Return solubility kinetic (reported value) for this molecule: CC(C)CCn1c2ccccc2c2cc(CC(N)=O)ccc21
Key: 0.4 µg/mL

Exercise: Using known records, supply solubility kinetic for Cc1ccc(NC(=O)c2cc3cccc([N+](=O)[O-])c3[nH]2)cc1
Key: 2.8 µg/mL

Exercise: Specify measured solubility kinetic for CC(O)c1nc2ccccc2n1CCCc1ccccc1 (configuration not stated) .
Key: > 42.1 µg/mL

Exercise: State, in one line, measured solubility kinetic of Cc1ccc(NC(=O)c2ccc3nc[nH]c3c2)nc1
Key: > 37.8 µg/mL

---

conditions: buffer; pH 7.4; 200.0 µM
observed_property: solubility kinetic (µg/mL)
Please respond with the number in µg/mL and leave the unit unwritten.

Exercise: Supply recorded solubility kinetic for O=C(Nc1cccc(S(=O)(=O)NCc2ccco2)c1)c1ccc(Cl)cc1 here.
Key: 3

Exercise: Kindly indicate its recorded solubility kinetic. Item: COC(=O)Cc1csc(NCc2ccccc2)n1
Key: 37.4

Exercise: Tell me solubility kinetic reported for CC(=O)CSc1nc(-c2ccccc2)c(-c2ccccc2)o1
Key: 3.1

Exercise: Retrieve solubility kinetic measured for COc1cccc(C(=O)OCC(=O)Nc2ccc3c(c2)OCCO3)c1 and print it.
Key: 8

---

Would you kindly list solubility kinetic for each of these compounds?
conditions: buffer; pH 7.4; 200.0 µM
Numbers only here, please. The scale is µg/mL.

Exercise: State its solubility kinetic: CCCCn1c(SCC(N)=O)nc2sc3c(c2c1=O)CCC3
Key: 1.9

Exercise: # return recorded solubility kinetic for input CN1CCc2c(sc(N)c2C(=O)c2ccc(Cl)cc2)C1
Key: 41.5

Exercise: // Input: Brc1c(-c2ccccc2)nc2n1Cc1ccccc1-2 . Output its solubility kinetic only.
Key: 0.6

Exercise: Answer with the recorded solubility kinetic of CC(=O)c1ccc(NC(=S)Nc2cccc3ccccc23)cc1 only.
Key: 10.6

Exercise: Find the measured solubility kinetic of CN1CCCN(C(=O)CNC(=O)c2ccc(Cl)cc2Cl)CC1 and report it.
Key: 50.8

Exercise: Given COc1ccccc1NC(=O)c1ccc(NC(=O)c2ccco2)cc1 , respond with its solubility kinetic.
Key: 8.5

---

details: buffer; pH 7.4; 200.0 µM
Label satisfied when solubility kinetic is at or above 3 µg/mL; anything below gets not satisfied.

Exercise: Test whether the compound O=C(Nc1ccc([N+](=O)[O-])cc1)OCCc1ccccn1 records solubility kinetic of 3 µg/mL or higher.
Key: not satisfied

Exercise: Confirm if solubility kinetic reported for the compound CCCc1c(C)[nH]c2ccc(C(=O)O)cc2c1=S is 3 µg/mL or above.
Key: satisfied

Exercise: Exam item: decide whether the reported solubility kinetic for CC(=O)Nc1ccc(S(=O)(=O)N2CCCCC2C(=O)O)cc1 (centres undefined) is at least 3 µg/mL.
Key: satisfied

Exercise: Please check the record Cc1ccc(S(=O)(=O)NCc2ccccc2)s1 and state if its solubility kinetic is at or above 3 µg/mL.
Key: satisfied

Exercise: Could you verify whether the entry CCNC(=S)NCCC1=c2ccccc2=N/C1=C\c1c(O)n(C)c(=O)n(C)c1=O shows solubility kinetic of no less than 3 µg/mL?
Key: satisfied

Exercise: solubility kinetic >= 3 µg/mL for CCCNC(=O)NC(=O)CSc1cccc(C(F)(F)F)c1 ?
Key: satisfied

Exercise: # bool: solubility kinetic of O=C(NCCNC(=O)c1cnccn1)c1ccc(Cl)c(Cl)c1 >= 3 µg/mL
Key: satisfied

Exercise: Say whether Cc1ccc(NC(=S)N2CCN(c3ccccn3)CC2)cc1C shows solubility kinetic of 3 µg/mL or more.
Key: not satisfied

Exercise: Could you please find out whether Clc1ccc(OCCCCCN2CCOCC2)cc1 has solubility kinetic that meets 3 µg/mL or exceeds it?
Key: satisfied

Exercise: Hi team, for O=C(c1ccc2c(c1)OCCO2)N1CCN(c2ccccn2)CC1 , is the recorded solubility kinetic at or above 3 µg/mL?
Key: satisfied

Exercise: Does the reported solubility kinetic for Cn1c(/C=C/c2ccc(Cl)cc2)c([N+](=O)[O-])c(=O)n(C)c1=O fall at or above the 3 µg/mL mark?
Key: satisfied

Exercise: Determine whether measured solubility kinetic meets or exceeds 3 µg/mL for COc1ccccc1CNC(=O)COC(=O)c1ccc(S(=O)(=O)N2CCCCC2)cc1
Key: not satisfied

Exercise: Hi team, for C/C(N)=C(/C#N)C(=O)COC(=O)c1ccccc1Cc1ccccc1 , is the recorded solubility kinetic at or above 3 µg/mL?
Key: satisfied

Exercise: State whether the measured solubility kinetic reaches 3 µg/mL, counting equality as reaching it, for CCC/C(O)=C1\C(=O)CCCC1=NCCc1c(C)[nH]c2ccccc12
Key: satisfied

Exercise: Check the entry O=C(CNC(=O)c1ccc(Br)cc1)Nc1ccc2c(c1)CCC2 : does solubility kinetic equal or exceed 3 µg/mL?
Key: not satisfied

Exercise: Hi team, for COC(=O)c1sccc1N/C=C(\C#N)S(=O)(=O)C(C)(C)C , is the recorded solubility kinetic at or above 3 µg/mL?
Key: not satisfied

Exercise: Does Cc1ccccc1CN1CCN(C(=O)CC(C)C)CC1 have a reported solubility kinetic of at least 3 µg/mL?
Key: satisfied

Exercise: Given the entry CC1=C(C(=O)c2ccccc2)C(c2ccc(O)cc2)NC(=S)N1 (centres undefined) , answer whether its solubility kinetic meets or surpasses 3 µg/mL.
Key: satisfied

Exercise: Decide: solubility kinetic of Cc1c(F)cccc1NC(=O)CCCCCC1NC(=O)NC1C (centres undefined) >= 3 µg/mL?
Key: satisfied

Exercise: Exam item: decide whether the reported solubility kinetic for O=S(=O)(c1cccc(F)c1)N1CCN(c2nc(-c3cccnc3)nc3ccccc23)CC1 is at least 3 µg/mL.
Key: not satisfied

Exercise: Check this compound for solubility kinetic at or above 3 µg/mL: O=C(c1ccc2nc[nH]c2c1)N1CCN(c2cccc(Cl)c2)CC1
Key: satisfied

Exercise: Quick check: does CN(C)c1cc(-c2ccc(C#N)cc2)oc(=O)c1Cl have solubility kinetic greater than or equal to 3 µg/mL?
Key: not satisfied

Exercise: Can COc1ccc2cc(Br)ccc2c1CC(=O)N1CCCC1 be said to have solubility kinetic at or above 3 µg/mL?
Key: satisfied

Exercise: Check this compound for solubility kinetic at or above 3 µg/mL: COc1ccc(-c2ncncc2-c2ccccc2)c(O)c1
Key: satisfied

Data credit: PubChem BioAssay AID1996
